Test system: Human pancreatic cancer cell CFPAC-1
Assay: CCK-8 cell proliferation assay, CFPAC-1
Format: cell-based
Details: CFPAC-1 cells, 72 hrs with drug, CCK-8, OD 450 nm
Heads up, the class ranges for IC50 are lower segment = under 0.04 µM, middle segment = from 0.04 µM up to 0.05 µM, upper segment = 0.05 µM and over

Some entries whose results are on file:
Molecule: COc1cccc(OC)c1C(=O)N1CCN(CCCCCNC(=NC#N)Nc2ccncc2)CC1 [BSS-PC006]
Classification: upper segment
//
Molecule: N#CN=C(NCCCCCCC1CCN(C(=O)c2ccco2)C1)Nc1ccncc1 (centres unmarked) [BSS-PC057]
Classification: lower segment
//
Molecule: N#CN=C(NCCCCCCC1CCN(C(=O)c2cccs2)C1)Nc1ccncc1 (centres unmarked) [BSS-PC053]
Classification: lower segment
//
Molecule: N#CN=C(NCCCCCC1CCN(C(=O)c2cc3ccccc3[nH]2)C1)Nc1ccncc1 (centres unmarked) [BSS-PC045]
Classification: upper segment

Sort into band: N#CN=C(NCCCCCC1CCN(C(=O)c2ccccc2)C1)Nc1ccncc1 (centres unmarked) [BSS-PC028]
lower segment

Moving on to N#CN=C(NCCCCCC1CCN(C(=O)C2CCCN2)C1)Nc1ccncc1 (centres unmarked) [BSS-PC035]
lower segment

---

Tested on: Human pancreatic cancer cell CFPAC-1
Test: CCK-8 cell proliferation assay, CFPAC-1
Format: cell-based
Conditions: CFPAC-1 cells, 72 hrs with drug, CCK-8, OD 450 nm
Could you mark each record Condition met if its IC50 falls strictly under 40 nM, and Condition not met if it equals or exceeds it?

Compound: N#CN=C(NCCCCCC1CCN(C(=O)c2cccs2)C1)Nc1cccnc1 (stereo not drawn)
Classification: Condition met

Compound: N#CN=C(NCCCCCC1CCN(C(=O)c2ccc[nH]2)C1)Nc1ccncc1 (stereo not drawn)
Classification: Condition met

Compound: COc1cccc(OC)c1C(=O)N1CCC(CCCCCNC(=NC#N)Nc2cccnc2)C1 (stereo not drawn)
Classification: Condition met

Compound: N#CN=C(NCCCCCC1CCN(C(=O)c2ccco2)C1)Nc1cccnc1 (stereo not drawn)
Classification: Condition met

Compound: N#CN=C(NCCCCCN1CCN(C(=O)c2ccco2)CC1)Nc1ccncc1
Classification: Condition met

Compound: N#CN=C(NCCCCCN1CCN(C(=O)c2cc3ccccc3[nH]2)CC1)Nc1ccncc1
Classification: Condition not met

Threshold test, IC50 < 40 nM: `N#CN=C(NCCCCCN1CCN(C(=O)c2cc3ccccc3o2)CC1)Nc1ccncc1`
Condition not met

Moving on to `N#CN=C(NCCCCCN1CCN(C(=O)c2[nH]ccc2F)CC1)Nc1ccncc1`
Condition met

---

System: Human lung adenocarcinoma cell A549
Assay: CCK-8 cell proliferation assay, A549
Format: cell-based
Conditions: A549 cells, 72 hrs with drug, CCK-8, OD 450 nm
Endpoint: IC50 (nM)
Report as a plain number; the unit nM is understood.

Compound: N#CN=C(NCCCCCN1CCN(C(=O)c2sccc2F)CC1)Nc1ccncc1
Assayed Target: Human lung adenocarcinoma cell A549
IC50 [nM]: 57

Please look at the following compound next.
What value of IC50 has been recorded for this entry: `N#CN=C(NCCCCCN1CCN(C(=O)c2ccc[nH]2)CC1)Nc1ccncc1`
55

---

Test system: Human lung adenocarcinoma cell A549
Experiment: CCK-8 cell proliferation assay, A549
Format: cell-based
Conditions: A549 cells, 72 hrs with drug, CCK-8, OD 450 nm
Endpoint: IC50 (nM)
Report as a plain number; the unit nM is understood.

Below, 6 molecules whose answers are already recorded.
Molecule: N#CN=C(NCCCCCC1CCN(C(=O)c2cc3ccccc3o2)C1)Nc1ccncc1 (stereo not shown) [BSS-PC047]
Assayed Target: Human lung adenocarcinoma cell A549
Units: nM
IC50: 66

Molecule: N#CN=C(NCCCCCC1CCN(C(=O)c2cccs2)C1)Nc1ccncc1 (stereo not shown) [BSS-PC029]
Assayed Target: Human lung adenocarcinoma cell A549
Units: nM
IC50: 35

Molecule: N#CN=C(NCCCCCN1CCN(C(=O)c2ccccc2)CC1)Nc1ccncc1 [BSS-PC003]
Assayed Target: Human lung adenocarcinoma cell A549
Units: nM
IC50: 29

Molecule: N#CN=C(NCCCCCCC1CCN(C(=O)c2cc3ccccc3o2)C1)Nc1ccncc1 (stereo not shown) [BSS-PC072]
Assayed Target: Human lung adenocarcinoma cell A549
Units: nM
IC50: 64

Molecule: N#CN=C(NCCCCCC1CCN(C(=O)C2CCCS2)C1)Nc1ccncc1 (stereo not shown) [BSS-PC034]
Assayed Target: Human lung adenocarcinoma cell A549
Units: nM
IC50: 23

Molecule: COc1cccc(OC)c1C(=O)N1CCC(CCCCCNC(=NC#N)Nc2ccncc2)C1 (stereo not shown) [BSS-PC031]
Assayed Target: Human lung adenocarcinoma cell A549
Units: nM
IC50: 42

Please look at the following molecule next.
What value of IC50 has been recorded for this entry: N#CN=C(NCCCCCCC1CCN(C(=O)c2cc3ccccc3[nH]2)C1)Nc1ccncc1 (stereo not shown) [BSS-PC071]
75
